B1: Pistol ribozyme (parent)
chain: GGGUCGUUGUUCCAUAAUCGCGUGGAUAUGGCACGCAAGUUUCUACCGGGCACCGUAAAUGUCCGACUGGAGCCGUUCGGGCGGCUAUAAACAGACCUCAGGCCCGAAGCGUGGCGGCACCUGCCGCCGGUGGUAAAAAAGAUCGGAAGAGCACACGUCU

- Variants of: B1
- assayNotes: aptazyme ON/OFF ratio, guanine; higher = stronger switching; co-transcriptional cleavage with and without guanine
measurementType: aptazyme ON/OFF ratio
Give bare numbers.

Look over these answered cases.
variantSpec	aptazyme ON/OFF ratio
U7G U8A G9C U10G U11C C12U C13G	1.03
U7A U8C U10C C13G	1.32
U7G U8G G9C U10G U11A C12G C13A	1.06
U7C U8G G9U U10C C12G	1.29
U7C U8A U10A U11A C13G	1.19
U7C U8A G9U U11A C12G C13G	1.15
U7G U8C G9U U10G U11C C12A C13U	1.37
G9U U10C U11G C12U C13A	1.46
U7G U8A G9A U10G U11A C12A C13A	1.04
U7C G9U U10A U11C C13G	1.03

Count: 8. Required value per item: aptazyme ON/OFF ratio.
1. U7G U8G U11G C12A C13U
2. U7C U8G G9U U10G U11A C12U C13G
3. U7C U8C G9A U11A
4. U8G G9A U10A U11A C12G C13G
5. U8G U10G U11G C13A
6. U7G U8A G9A U10G U11G C12U C13G
7. U7G U8C G9C U10A U11G C13U
8. U7G G9C U10G U11G C13A

result:
1. 1.35
2. 1.17
3. 1.16
4. 1.39
5. 1.21
6. 1.18
7. 1.18
8. 1.17

Count: 4. Required value per item: aptazyme ON/OFF ratio.
1. U7A U8A U11C C13U
2. U8C G9C U10C U11A C12A C13A
3. U7G U8C G9U U10G U11C C13U
4. U7A U8C G9U U10C C12G C13A

result:
1.23
1.04
1.18
1.13

Each recorded value in this set is attributed to the RNAGym collection of RNA variant scans (doi:10.1021/acssynbio.7b00057).
